Entries and their normalized growth values follow.
PROTOCOL DESCRIPTION: chemical genetic growth profiling, strain panel (AID 1159580);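 further: tested at 20 µM; growth read once vehicle control cultures reached saturation at 30 °C; 1 = growth at the plate median or of vehicle wells; lower values mean less growth of the strain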
TEST CONDITIONS: S. cerevisiae deletion strains, growth OD, locus YEL061C, strain CIN8, stronger effect = lower value
Screen size: about 5,500 compounds; about 2,000 (36%) were called active. Not shown: some 18% with an inconclusive outcome. Some of the results follow.
# answer = number (no unit)

The reported normalized growth of the molecule CN1CCCN=C1COC(=O)C(O)(c1ccccc1)C1CCCCC1 (centres undefined) was 1.01

GET /value?item= COc1ccc2c(c1OC)C(=O)O[C@H]2[C@H]1c2cc3c(cc2CCN1C)OCO3 &field=normalized growth returns 0.991

normalized growth in this record for COc1ccc2c(c1OC)C(=O)O[C@@H]2[C@H]1c2cc3c(cc2CCN1C)OCO3 : 1.01

Documented normalized growth of CCS(=O)CCSP(=O)(OC)OC (centres undefined) : 1.02
